// TGI lookup, one value per entry
- Tested on: DU-145 prostate
- ASSAY_METHOD_TEXT: NCI tumour cell line growth inhibition, 48 h
Give the value, in units of µM, as a plain number.

C[C@H]1[C@H](C)CC[C@]2(C(=O)OCCOCCOCC[P+](c3ccccc3)(c3ccccc3)c3ccccc3)CC[C@]3(C)C(=CC[C@@H]4[C@@]5(C)CC[C@H](OC(=O)C(Cl)Cl)C(C)(C)[C@@H]5CC[C@]43C)[C@H]12 = 0.941

# ---- query compound ----
Bench note: what TGI did N#C/C=C(\c1ccc([N+](=O)[O-])cc1)n1nnc2cc(Cl)c(Cl)cc21 show? 3.3

###

- System: SN12C renal
- ASSAY_METHOD_TEXT: NCI tumour cell line growth inhibition, 48 h
PARAMETER_MEASURED: GI50

Examples from the recorded data:
CCCCCCNC(=O)c1nc(-c2ccccc2)oc1Cc1ccc(OP(=O)(O)O)cc1 = 17 µM
Cn1cc(C2=C(c3cn(C)c4cc(C(N)=O)ccc34)C(=O)NC2=O)c2ccccc21 = 1.91 µM
Cc1ccc(/C=C/c2c(C(=O)/C=C/c3ccc(C(F)(F)F)cc3)c(C)nc3ccccc23)cc1 = 1.51 µM
Cc1cn2c(/C=C3\C(=O)Nc4ccc(O)cc43)c(-c3ccc(Cl)cc3)nc2s1 = 10.4 µM

May I ask what GI50 has been recorded for CCCCCCC[CH2][Sn]1([CH2]CCCCCCC)[O]C(=O)c2cccnc2[S]1 ? > 100 µM

###

- Tested on: NCI-H522 lung
- ASSAY_METHOD_TEXT: NCI tumour cell line growth inhibition, 48 h
PARAMETER_MEASURED: TGI

Before answering, review these 3 worked examples.
O=P(O)(Cc1ccccc1)c1ccccc1-c1ccccc1 = > 100 µM
O=C1C[C@H]2[C@@H](O1)[C@@H](O)CN1C(=O)c3ccccc3[C@H]21 = > 100 µM
CC1=C2CCCC2=C/C(=N/Nc2ccc([N+](=O)[O-])cc2[N+](=O)[O-])CC1 = > 100 µM

Would you mind telling me what TGI value was observed for O=c1[nH]c(=O)n(C2CC(O)C(CO)O2)cc1CO (stereo not given) ? > 100 µM

What about this molecule? O=C1NN=C2C=C(c3ccc(Cl)cc3)CC(c3cccc(Cl)c3)C12 (stereo not given) 42.8 µM

###

- Test system: NCI-H226 lung
- ASSAY_METHOD_TEXT: NCI tumour cell line growth inhibition, 48 h; in the data active means GI50 below about 0.43 µM; inactive means the rest
// one of label 1 = active, label 0 = inactive, no free text

CCCCCCNC(=O)c1nc(-c2ccccc2)oc1Cc1ccc(OP(=O)(O)O)cc1 = label 0

Tell me the assay call for N#C/C=C(\c1ccc([N+](=O)[O-])cc1)n1nnc2cc(Cl)c(Cl)cc21 please. label 0

How about this molecule: COc1cccc2c1C(=O)c1c(O)c3c(c(O)c1C2=O)CC(O)(/C(C)=N/NC(=O)CCC(=O)N/N=C(\C)C1(O)Cc2c(O)c4c(c(O)c2C(OC2CC(N)C(O)C(C)O2)C1)C(=O)c1c(OC)cccc1C4=O)CC3OC1CC(N)C(O)C(C)O1 (centres undefined) label 1

Another: O=c1cc2oc3cc(O)c(O)cc3c(-c3ccccc3O)c-2cc1O label 0

Could you do the same for COc1ccncc1C#Cc1cncc(C(=O)Nc2ccc(CN3CCN(C)CC3)c(C(F)(F)F)c2)c1 , please? label 0

Try the molecule O=c1[nH]c(=O)n(C2CC(O)C(CO)O2)cc1CO (centres undefined) label 0

// repeat for Cn1cnc([N+](=O)[O-])c1S(=O)(=O)Oc1ccccc1 and report label 0

// same read-out, input: CCN(CC)CCOc1ccc(/C=C2\CC3C4CC=C5C[C@@H](O)CC[C@]5(C)C4CC[C@]3(C)C2=O)cc1OC (some centres undefined) label 0

Can you handle COc1ccccc1N1CCN(CCCn2c(=O)c3c(OC)nc(C)cc3c(=O)n2-c2ccccc2)CC1 next? label 0

###

- Test system: UACC-62 melanoma
- ASSAY_METHOD_TEXT: NCI tumour cell line growth inhibition, 48 h
Each item that follows carries a reported GI50.

C=CCCCCCCCCCCC1(O)C=CC2=[N+](CCCCCN=C(N)N)CCCN21 (stereo not drawn) = 13.3 µM
CCCCCCC[CH2][Sn]1([CH2]CCCCCCC)[O]C(=O)c2cccnc2[S]1 = > 100 µM
Cn1cc(C2=C(c3cn(C)c4cc(C(N)=O)ccc34)C(=O)NC2=O)c2ccccc21 = 2.31 µM
COc1cc(-c2nn(-c3cccc(NC(=O)Nc4ccc(Cl)c(Cl)c4)c3)cc2-c2ccncc2)ccc1Cl = 0.773 µM
COc1cc(C2c3cc4c(cc3C(O)C(CO)C2CO)OCO4)cc(OC)c1OC (stereo not drawn) = 0.534 µM
Ic1ccc(-n2nnnc2-c2cnoc2-c2ccccc2)cc1 = 29.3 µM
Cn1cnc([N+](=O)[O-])c1S(=O)(=O)Oc1ccccc1 = 14.9 µM
N#C/C=C(\c1ccc([N+](=O)[O-])cc1)n1nnc2cc(Cl)c(Cl)cc21 = 1.77 µM
CCCn1c(N)c(C(=O)N/N=C(/C)c2cc3cccc(OC)c3o2)sc1=S = 34.6 µM
Cc1nc2cnc(N)c(C#Cc3cncc(C(=O)Nc4ccc(CN5CCN(C)CC5)c(C(F)(F)F)c4)c3)c2nc1C = 0.116 µM

Value lookup for GI50; key = C=Cc1c(C)c2cc3nc(cc4[nH]c(cc5nc(cc1[nH]2)C(C)=C5CCC(=O)O)c(CCC(=O)OC)c4C)[C@@]1(C)C3=CC=C(C(=O)OC)[C@H]1C(=O)OC 1.37 µM

How about CCOc1ccc2nc(S/C(=C/C=C(C#N)C#N)c3ccc(C)cc3)sc2c1 ? 22 µM

Then this compound: NS(=O)(=O)c1ccc(N(/C=C/C(=O)C(F)(F)F)CC(=O)c2ccc(Cl)cc2)cc1 27.7 µM

###

# TGI per entry
- Tested on: SNB-78 CNS
- ASSAY_METHOD_TEXT: NCI tumour cell line growth inhibition, 48 h

Recorded results for 5 compounds are shown here.
CCOC(=O)NC(=O)c1cn(CCOC(=O)NCCCCCCNC(=O)OCCn2cc(C(=O)NC(=O)OCC)c(=O)[nH]c2=O)c(=O)[nH]c1=O = > 100 µM
O=C1c2ccccc2C2(O)c3cc4ccccc4cc3OC12O (stereo unspecified) = > 100 µM
Cc1c(Cl)cccc1N1C(=O)C(Cl)=C(Cl)C1=O = > 100 µM
CCOc1ccc2c(c1)[n+]([O-])c(-c1ccccc1Cl)c(N)[n+]2[O-] = > 100 µM
N=c1ccn2c(n1)OC1C(O)C(CO)OC12 (stereo unspecified) = > 1000 µM

Which value of TGI has been reported for CCOC(=O)C1(c2ccccc2)CCC(=O)CC1 in the records? > 100 µM

###

// reported TGI per item
- Test system: CAKI-1 renal
- ASSAY_METHOD_TEXT: NCI tumour cell line growth inhibition, 48 h
Lab book: enter the figure in µM, no units written.

CCCCCCNC(=O)c1nc(-c2ccccc2)oc1Cc1ccc(OP(=O)(O)O)cc1 = 33.6
CC1(C)OC(=C(C#N)C#N)C(C#N)=C1/C=C/c1ccncc1 = 3.64
NCCCNCCCCNCCCN = 11.6
O=C(NCCCCN=c1cccccc1NCCCCNC(=O)OCc1ccccc1)OCc1ccccc1 = 37.9
COc1cc(-c2nn(-c3cccc(NC(=O)Nc4ccc(Cl)c(Cl)c4)c3)cc2-c2ccncc2)ccc1Cl = 3.7
C=Cc1c(C)c2cc3nc(cc4[nH]c(cc5nc(cc1[nH]2)C(C)=C5CCC(=O)O)c(CCC(=O)OC)c4C)[C@@]1(C)C3=CC=C(C(=O)OC)[C@H]1C(=O)OC = 2.39
C=CCc1cccc(/C=N/NC(=O)CN2CCN(Cc3ccccc3)CC2)c1O = 2.12
c1ccc(SC2CCSc3ccccc3C2Sc2ccccc2)cc1 (configuration not stated) = 85

For COc1ccc(N2C(=O)CS(=O)(=O)C2c2cccc(Oc3ccccc3)c2)cc1 (configuration not stated) , what is its reported TGI? 19.3

###

Reported GI50 values follow for various compounds
- Test system: RXF 393 renal
- ASSAY_METHOD_TEXT: NCI tumour cell line growth inhibition, 48 h

Recorded results for 3 compounds are shown here.
CCCCCCC[CH2][Sn]1([CH2]CCCCCCC)[O]C(=O)c2cccnc2[S]1 = > 100 µM
COC12C=C/C(=C(/C(=O)OCc3ccncc3)C(=O)CCCCCCCCC3(OC)C=C/C(=C(/C(=O)OCc4ccncc4)C(=O)CCCCCCCC1)O3)O2 = 0.277 µM
COc1ccncc1C#Cc1cncc(C(=O)Nc2ccc(CN3CCN(C)CC3)c(C(F)(F)F)c2)c1 = 15.7 µM

Which measured GI50 value corresponds to COc1ccc(-c2oc(=O)ccc2-c2cc(OC)c(OC)c(OC)c2)cc1F ? 11.6 µM

Likewise for O=c1cc2oc3cc(O)c(O)cc3c(-c3ccccc3O)c-2cc1O ? 6.5 µM
